target: hOCT1 (Homo sapiens, UniProt O15245); experiment: Inhibition of 14C-TEA uptake in hOCT1-transfected cells by liquorice ingredients; conditions: read-out: IC50 on hOCT1; 14C-TEA probe, 5 min
Sequence (O15245 whole entry): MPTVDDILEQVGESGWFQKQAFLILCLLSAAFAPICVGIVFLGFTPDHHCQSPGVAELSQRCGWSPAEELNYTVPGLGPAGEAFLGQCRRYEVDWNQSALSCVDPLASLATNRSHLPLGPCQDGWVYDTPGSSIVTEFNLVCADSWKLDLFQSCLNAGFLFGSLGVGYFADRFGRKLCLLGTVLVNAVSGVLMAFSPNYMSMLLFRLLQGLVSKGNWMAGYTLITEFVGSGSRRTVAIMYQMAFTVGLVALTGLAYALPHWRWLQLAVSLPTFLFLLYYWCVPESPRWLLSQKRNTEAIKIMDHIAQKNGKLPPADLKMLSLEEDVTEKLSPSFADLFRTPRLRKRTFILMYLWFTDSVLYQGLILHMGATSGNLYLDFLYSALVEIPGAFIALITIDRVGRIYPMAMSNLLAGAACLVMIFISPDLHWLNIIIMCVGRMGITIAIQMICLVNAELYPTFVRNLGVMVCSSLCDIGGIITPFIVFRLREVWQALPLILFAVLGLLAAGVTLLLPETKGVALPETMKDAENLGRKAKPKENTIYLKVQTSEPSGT
observable: pIC50
Numbers only, as −log10 of the molar value.

Summary line: C=CC(C)(C)c1cc(/C=C/C(=O)c2ccc(O)cc2)c(OC)cc1O , hOCT1 (Homo sapiens, UniProt O15245), reported pIC50 = 4.85

* * *

Molecular target: hOATP2B1 (Homo sapiens)
Sequence (O94956 1-709): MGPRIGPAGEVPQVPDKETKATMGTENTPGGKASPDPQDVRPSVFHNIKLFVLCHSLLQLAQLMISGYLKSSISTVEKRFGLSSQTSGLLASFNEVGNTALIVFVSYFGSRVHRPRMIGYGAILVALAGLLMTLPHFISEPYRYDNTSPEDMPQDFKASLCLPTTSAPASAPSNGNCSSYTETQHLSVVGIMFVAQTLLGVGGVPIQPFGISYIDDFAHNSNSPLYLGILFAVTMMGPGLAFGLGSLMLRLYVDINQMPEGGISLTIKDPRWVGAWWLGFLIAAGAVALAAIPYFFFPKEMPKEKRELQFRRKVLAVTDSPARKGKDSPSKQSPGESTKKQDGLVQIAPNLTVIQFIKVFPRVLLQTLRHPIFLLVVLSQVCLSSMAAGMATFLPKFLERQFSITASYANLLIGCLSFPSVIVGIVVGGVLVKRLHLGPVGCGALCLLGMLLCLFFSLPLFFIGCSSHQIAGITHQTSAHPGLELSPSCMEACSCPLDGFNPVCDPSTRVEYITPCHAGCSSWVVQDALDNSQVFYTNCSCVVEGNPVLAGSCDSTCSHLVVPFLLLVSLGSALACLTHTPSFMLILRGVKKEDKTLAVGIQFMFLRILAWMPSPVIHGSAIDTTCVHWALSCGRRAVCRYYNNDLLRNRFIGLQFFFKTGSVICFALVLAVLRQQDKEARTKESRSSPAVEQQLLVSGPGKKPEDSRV
Format: in vitro ADME
observable: IC50 (nM)
Answers are plain numbers, in nM.

Short answer for CC1(C)[C@@H](O)CC[C@]2(C)[C@H]3C(=O)C=C4[C@@H]5C[C@@](C)(C(=O)O)CC[C@]5(C)CC[C@@]4(C)[C@]3(C)CC[C@@H]12 : IC50 was 1070

* * *

molecular target: UniProt:Q9NPD5; type: in vitro ADME; settings: read-out: IC50 on hOATP1B3; 3H-ES probe, 2 min
Sequence (Q9NPD5 whole entry): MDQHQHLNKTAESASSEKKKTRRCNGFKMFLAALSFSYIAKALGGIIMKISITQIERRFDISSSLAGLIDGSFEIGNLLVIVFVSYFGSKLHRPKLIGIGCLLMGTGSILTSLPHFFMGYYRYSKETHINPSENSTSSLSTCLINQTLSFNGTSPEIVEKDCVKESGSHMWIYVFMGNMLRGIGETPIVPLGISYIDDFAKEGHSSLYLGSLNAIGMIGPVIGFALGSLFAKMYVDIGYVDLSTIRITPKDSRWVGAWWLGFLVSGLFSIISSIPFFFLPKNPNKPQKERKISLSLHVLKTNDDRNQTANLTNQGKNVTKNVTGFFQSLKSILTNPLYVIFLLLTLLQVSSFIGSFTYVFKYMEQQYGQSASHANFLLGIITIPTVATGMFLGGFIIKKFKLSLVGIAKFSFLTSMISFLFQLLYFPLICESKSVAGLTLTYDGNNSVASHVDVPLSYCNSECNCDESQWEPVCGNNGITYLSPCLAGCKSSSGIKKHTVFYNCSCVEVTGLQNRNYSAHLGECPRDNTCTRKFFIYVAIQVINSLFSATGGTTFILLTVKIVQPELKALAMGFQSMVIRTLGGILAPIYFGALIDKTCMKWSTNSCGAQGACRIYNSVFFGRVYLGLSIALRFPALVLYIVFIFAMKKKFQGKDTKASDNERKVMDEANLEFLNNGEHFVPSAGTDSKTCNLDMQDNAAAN
observable: pIC50
One number for each entry, as −log10 of the molar value.

pIC50 value, target or system UniProt:Q9NPD5, for C=CC(C)(C)c1cc(/C=C/C(=O)c2ccc(O)cc2)c(OC)cc1O [licochalcone A] : 5.72

* * *

biological target: hOCT2 (Homo sapiens); assay: Inhibition of 14C-TEA uptake in hOCT2-transfected cells by liquorice ingredients; type: in vitro ADME
Sequence (O15244 whole entry): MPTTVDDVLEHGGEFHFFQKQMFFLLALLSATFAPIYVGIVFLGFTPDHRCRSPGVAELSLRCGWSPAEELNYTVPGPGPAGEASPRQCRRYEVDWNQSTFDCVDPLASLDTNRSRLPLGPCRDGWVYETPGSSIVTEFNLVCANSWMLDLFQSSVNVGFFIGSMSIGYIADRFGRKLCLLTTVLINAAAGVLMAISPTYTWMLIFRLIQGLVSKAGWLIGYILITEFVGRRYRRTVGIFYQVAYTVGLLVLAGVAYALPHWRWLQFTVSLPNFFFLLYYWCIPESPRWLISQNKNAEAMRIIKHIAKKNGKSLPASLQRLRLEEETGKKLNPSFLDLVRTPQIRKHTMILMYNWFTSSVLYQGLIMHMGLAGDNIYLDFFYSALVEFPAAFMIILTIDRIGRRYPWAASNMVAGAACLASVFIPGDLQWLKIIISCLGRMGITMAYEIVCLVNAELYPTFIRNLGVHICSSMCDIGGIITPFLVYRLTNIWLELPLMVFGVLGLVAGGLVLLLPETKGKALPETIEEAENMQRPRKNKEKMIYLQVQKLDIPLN
observable: pIC50
One number for each entry, as −log10 of the molar value.

Entry under test: CC1(C)[C@@H](O)CC[C@]2(C)[C@H]3C(=O)C=C4[C@@H]5C[C@@](C)(C(=O)O)CC[C@]5(C)CC[C@@]4(C)[C@]3(C)CC[C@@H]12 . Its pIC50 was 5.13

Read the next record carefully.
The molecule listed as O=C(/C=C/c1ccc(O)cc1)c1ccc(O)cc1O has a reported pIC50 of 4.50
